Entries and their z-score values follow.
test: S. cerevisiae RM11-1a growth modifiers, primary screen, strain RM11-1a, OD600, basal, 24 h (AID 1177); settings: OD600, 24 h, higher = more signal, called active from +8 up or from −8 down;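 note: cultures grown under basal conditions with no added stressor; test concentration not given here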
The source made the active and inactive calls.

Some entries whose results are on file:
* CO[C@@H]1COC(=O)CCC[C@@H](C)[C@H](OC)COC(=O)[C@H](Cc2ccccc2)NC(=O)CC=C[C@H]1C | 0.926 (inactive)
* CC(C)CN1CCc2nc(-c3ccccc3)c3c(c2CC1)CO[C@@H](C)C3 | -0.284 (inactive)
* COc1ccc(O[C@H]2C=C[C@@H](c3ccccc3)O[C@@H]2CON=C[C@@H](C)[C@H](OCc2ccccc2)C(C)C)cc1 | 0.443 (inactive)
* CCCCCN1CC=CC23O[C@@H]4C=CCOC(=O)[C@@H]4[C@H]2C(=O)N(C(CO)C(C)C)[C@@H]3C1=O (stereo not given in full) | 0.89 (inactive)

Now take the following molecule into account.
Measured z-score, CC(=O)OC[C@H]1O[C@@H](ON=C[C@@H](C)[C@H](OCc2ccccc2)C(C)C)[C@H](OC(C)=O)[C@@H](OC(C)=O)[C@@H]1OC(C)=O : -0.519 (inactive)

* * *

assay: P. aeruginosa biofilm formation inhibitors, primary screen, strain PAO1, LB-PBS medium, absorbance 600 nm (AID 1176); note: test concentration not given here; settings: P. aeruginosa PAO1 growth/biofilm, A600, 12 h; higher = more signal
Entries and their z-score values follow.
# respond with the number and nothing more

Some entries whose results are on file:
* O=C1C[C@@H](O)[C@@H](O)[C@@H]2[C@@H]3C(=O)N(c4cccc(Oc5ccccc5)c4)C(=O)[C@@H]3CC[C@@H]12 | -0.708
* CCOC(=O)NN=C1C[C@@H](O)[C@@H](O)[C@@H]2[C@@H]3C(=O)N(C4CCCCC4)C(=O)[C@@H]3CC[C@H]12 | -0.0941
* CCN1C(=O)[C@H]2[C@H]3[C@H](O)[C@H](O)CC(=NOC(C)CN4CCCCc5nc(C)c(C)cc54)[C@@H]3CC[C@H]2C1=O (some centres undefined) | -0.418
* COc1ccccc1CN1C(=O)c2ccccc2[C@@H](C(=O)NCC(F)(F)F)[C@@H]1c1ccc(CO)cc1 | 0.512

Now take the following molecule into account.
Measured z-score, O=C1C2C=CC(C(O)c3ccc([N+](=O)[O-])cc3)N(Nc3ccc([N+](=O)[O-])cc3)C2C(=O)N1c1ccccc1 (centres undefined) : 1.64

* * *

experiment: MM1S myeloma cell viability, profiling panel, resazurin fluorescence, basal, 24 h, PK04 Diversity Set (AID 1174); conditions: higher = more signal, called active from +8 up or from −8 down;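 note: MM1S multiple myeloma cell line; test concentration not given here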
Measured Metric: z-score
# respond with the number and nothing more

Some entries whose results are on file:
• CO[C@@H]1COC(=O)CC=C[C@@H](C)COC(=O)[C@H](COCc2ccccc2)NC(=O)CC=C[C@H]1C = 0.579
• C=CC[C@@H]1C=C[C@H](ON=C(C)CCN2CCc3nc(CC)c(CC)cc3C2)[C@@H](CO)O1 = -0.439

Now take the following molecule into account.
Measured z-score, CC(C)(C)N1C(=O)[C@H]2[C@H]3[C@H](O)[C@H](O)CC(=NO[C@@H]4O[C@H](CO)[C@@H](O)[C@H](O)[C@H]4O)[C@@H]3CC[C@H]2C1=O : -0.236
